- MEASUREMENT DESCRIPTION: logP by HPLC on reversed-phase column (C18), acidic range
- Assay type: physicochemical
- MEASUREMENT CONTEXT: reversed-phase HPLC column (C18), formic acid in water/acetonitrile
READOUT: chromatographic logP

CCS(=O)(=O)c1c(-c2nc3cc(C(F)(F)F)cnc3n2C)nc2cc(CC#N)ccn12 : 2.54
CCS(=O)(=O)c1c(-c2nc3cc(C(F)(F)F)cnc3n2C)nc2cc(NC(C)=O)ccn12 : 2.28
CCS(=O)(=O)c1c(-c2nc3cc(C(F)(F)F)cnc3n2C)nc2cc(NC(=S)NC3CC3)ccn12 : 2.71
CCS(=O)(=O)c1c(-c2nc3cc(C(F)(F)F)cnc3n2C)nc2cc(NS(=O)(=O)NC3CC3)ccn12 : 2.55
CCOC(=O)c1nc2cc(Br)ccn2c1S(=O)(=O)CC : 2.22
CCS(=O)(=O)c1c(-c2nc3cc(C(F)(F)F)cnc3n2C)nc2cc(N)ccn12 : 2.13
CCS(=O)(=O)c1c(-c2nc3cc(C(F)(F)F)cnc3n2C)nc2cc(Br)ccn12 : 3.3
CCOC(=O)c1nc2cc(Br)ccn2c1SCC : 2.76
CCS(=O)(=O)c1c(-c2nc3cc(C(F)(F)F)cnc3n2C)nc2cc(S(=O)(=O)C3CC3)ccn12 : 2.89

----------
- Tested on: green peach aphid (Myzus persicae)
- MEASUREMENT DESCRIPTION: Myzus persicae spray test
- Type: in vivo
- MEASUREMENT CONTEXT: foliar, 120 h, 100 g/ha, after 5 days, Chinese cabbage leaf discs, read-out: efficacy
pest or weed control at 100 g/ha reference
Use % as the unit, but write only the number.

Example cases with answers are listed next.
CCS(=O)(=O)c1c(-c2nc3cc(C(F)(F)F)ncc3n2C)nc2cc(S(=O)(=O)NC3CC3)ccn12 : 90
CCS(=O)(=O)c1c(-c2nc3cc(C(F)(F)F)cnc3n2C)nc2cc(NC(=O)NC3CC3)ccn12 : 100
CCS(=O)(=O)c1c(-c2nc3cc(OC(F)(F)F)cnc3n2C)nc2cc(C3(C#N)CC3)ccn12 : 90

Need pest or weed control at 100 g/ha of CCS(=O)(=O)c1c(-c2nc3cc(C(F)(F)F)cnc3n2C)nc2cc(NC(=O)C3CC3)ccn12 , thanks.
90

Need pest or weed control at 100 g/ha of CCS(=O)(=O)c1c(-c2nc3cc(SC(F)(F)F)cnc3n2C)nc2cc(S(=O)(=O)C3CC3)ccn12 , thanks.
100

Need pest or weed control at 100 g/ha of CCS(=O)(=O)c1c(-c2nc3cc(C(F)(F)F)cnc3n2C)nc2cc(NC(=S)NC3CC3)ccn12 , thanks.
90

----------
- Tested on: L1 larvae of the Australian sheep blowfly (Lucilia cuprina)
- MEASUREMENT DESCRIPTION: Lucilia cuprina test
- Type: in vivo
- MEASUREMENT CONTEXT: 48 h, 100 ppm, after 2 days, read-out: efficacy (kill)
- Description: Solvent: dimethyl sulfoxide To produce a suitable active compound formulation, 10 mg of active compound are mixed with 0.5 ml of dimethyl sulfoxide, and the concentrate is diluted with water to the desired concentration. About 20 L1 larvae of the Australian sheep blowfly (Lucilia cuprina) are transferred into a test vessel containing minced horsemeat and the active compound formulation of the desired concentration. After 2 days, the kill in % is determined. […]
READOUT: pest or weed control at 100 ppm (%)
Use % as the unit, but write only the number.

Example cases with answers are listed next.
CCS(=O)(=O)c1c(-c2nc3cc(C(F)(F)F)cnc3n2C)nc2cc(NC(=S)NC3CC3)ccn12 : 100
CCS(=O)(=O)c1c(-c2nc3cc(C(F)(F)F)cnc3n2C)nc2cc(NC(=O)C3CC3)ccn12 : 100
CCS(=O)(=O)c1c(-c2nc3cc(C(F)(F)F)cnc3n2C)nc2cc(NC(=O)NC3CC3)ccn12 : 100
CCS(=O)(=O)c1c(-c2nc3cc(SC(F)(F)F)cnc3n2C)nc2cc(NC(=O)C3CC3)ccn12 : 100
CCS(=O)(=O)c1c(-c2nc3cc(C(F)(F)F)cnc3n2C)nc2cc(S(=O)(=O)C3CC3)ccn12 : 100

Now consider the entry below.
Need pest or weed control at 100 ppm of CCS(=O)(=O)c1c(-c2nc3cc(C(F)(F)F)cnc3n2C)nc2cc(NS(=O)(=O)NC3CC3)ccn12 , thanks.
100
